Target: CRBN protein (Homo sapiens)
Test: Binding activity to E3 ubiquitin ligase CRBN (HTRF competitive binding kit, Thalidomide-Red)
Details: competition with XL665-labeled thalidomide for GST-tagged CRBN protein, HTRF, 3 hours at room temperature; read-out: IC50
Below, each entry is listed alongside its reported IC50.
Form entry: value (nM) — number only.

Please review the following examples before continuing.
>>> meas_value("O=C1CCC(Nc2ccc3c(c2)OCC32CCNCC2)C(=O)N1 (stereo not drawn) [Compound C1]")
1900
>>> meas_value("O=C1CC[C@H](NC(=O)c2ccc3c(c2F)OCC32CCNCC2)C(=O)N1 [Compound A1]")
15500

// moving on: another record for IC50
Entry under review: Cn1c(=O)n(C2CCC(=O)NC2=O)c2ccc3c(c21)OCC31CCNCC1 (stereo not drawn) [Compound D2] . Reported IC50?
28
